# System: SK-MEL-28 cells (B-RAF V600E mutated)
# Procedure details: Inhibition of the proliferation of cultivated human melanoma cells (SK-MEL-28), AlamarBlue
# Format: cell-based
# Assay setup: SK-MEL-28 melanoma cells, 72 h incubation
What pEC50 was measured for each of the following?
Schema: pEC50 number; meaning minus log10 of the concentration expressed in molar units.

Task: Item under review: CCCS(=O)(=O)Nc1ccc(F)c(Nc2ncnc3cnc(N4CC[C@H](F)C4)nc23)c1F [Example I-7] . Reported pEC50?
Output: 6.75

Task: Try the molecule CCCS(=O)(=O)Nc1ccc(F)c(Nc2ncnc3cnc(N4CC[C@H](F)C4)nc23)c1F [Example I-8]
Output: 6.28
